- System: U2OS
- PROTOCOL: Incucyte cell viability with U2OS; also: unitless GR value; below 1 slowed growth and below 0 cell loss
- Type: toxicity, cell-based
- CONDITION SET: human, 18 h, 10 µM, compound concentration 10 uM, replicate number 1
Each entry below carries its reported Growth Rate.
// response body must contain only the number

*Q* Entry under review: Nc1c(CC(=O)O)cccc1C(=O)c1ccc(Br)cc1 . Reported Growth Rate?
*A* 0.86

*Q* Entry under review: Cc1cccc([C@H]2CC[C@@H](N3CCN(c4cccnc4)CC3)CC2)c1.O=C(O)C(F)(F)F.O=C(O)C(F)(F)F . Reported Growth Rate?
*A* 0.97

*Q* Entry under review: C[C@H](CCC(=O)O)[C@H]1CC[C@H]2[C@@H]3[C@H](O)C[C@@H]4C[C@H](O)CC[C@]4(C)[C@H]3C[C@H](O)[C@]12C . Reported Growth Rate?
*A* 0.98

*Q* Entry under review: CC(C)c1cnc(NC(=O)Cc2ccccc2)s1 . Reported Growth Rate?
*A* 0.77

*Q* Entry under review: CCc1ccc(N(CC(C)C)S(=O)(=O)c2ccc(OCC3CCOCC3)c(CO)c2)cc1 . Reported Growth Rate?
*A* 0.98

*Q* Entry under review: COc1cc([N+](=O)[O-])ccc1NC(=O)c1ccccc1O . Reported Growth Rate?
*A* 0.4

Others:
*Q* Entry under review: CC[C@@H](Nc1c(C#N)c(-c2ccc(-c3cccc(C)c3F)cc2)nc2cnccc12)C(=O)O . Reported Growth Rate?
*A* 0.68

*Q* Entry under review: Cc1cc(NC(=O)c2cccc(NC(=O)/C=C/CN(C)C)c2)ccc1Nc1nccc(-c2cccnc2)n1 . Reported Growth Rate?
*A* 0.46

----------
- Tested on: HEK-293T
- PROTOCOL: Incucyte cell viability with HEK293T; also: unitless GR value; below 1 slowed growth and below 0 cell loss
- Format: toxicity, cell-based
- CONDITION SET: human, 24 h, 10 µM, compound concentration 10 uM, replicate number 1
METRIC: Growth Rate
// response body must contain only the number

*Q* Checklist item: Growth Rate tested on HEK-293T, entry Nc1c(CC(=O)O)cccc1C(=O)c1ccc(Br)cc1 , value?
*A* 0.98

*Q* Checklist item: Growth Rate tested on HEK-293T, entry CN(C)CCC[C@@]1(c2ccc(F)cc2)OCc2cc(C#N)ccc21 , value?
*A* 0.6

*Q* Checklist item: Growth Rate tested on HEK-293T, entry CCS(=O)(=O)Nc1cccc(Oc2cc(F)cc(Nc3ccc(I)cc3F)c2NS(=O)(=O)C2CC2)c1 , value?
*A* 0.61

*Q* Checklist item: Growth Rate tested on HEK-293T, entry Cc1[nH]nc2ccc(-c3cncc(OCC(N)Cc4ccccc4)c3)cc12 (centres undefined) , value?
*A* 0.9

*Q* Checklist item: Growth Rate tested on HEK-293T, entry O=C(Nc1cc(-c2cn[nH]c2)ccc1N1CCOCC1)c1ccc(-c2ccc3ncccc3c2)o1 , value?
*A* -0.01

Others:
*Q* Checklist item: Growth Rate tested on HEK-293T, entry O=C(O)[C@]1(Cc2cccc(Nc3nccs3)n2)CC[C@@H](Oc2cccc(Cl)c2F)CC1 , value?
*A* 0.63

*Q* Checklist item: Growth Rate tested on HEK-293T, entry CCOC(=O)/N=C(\N)c1ccc(OCc2cccc(COc3ccc(C(C)(C)c4ccc(OC(=O)OCC)cc4)cc3)c2)cc1 , value?
*A* 0.77

*Q* Checklist item: Growth Rate tested on HEK-293T, entry Cl.O=C(O)CCCN1CCC[C@H]1COc1ccc(Oc2ccc(Cl)cc2)cc1 , value?
*A* 0.98

*Q* Checklist item: Growth Rate tested on HEK-293T, entry O=C(Cc1ccccc1[N+](=O)[O-])Nc1ccc(-c2ccc(C(O)(C(F)(F)F)C(F)(F)F)cc2F)cc1 , value?
*A* 0.78

----------
- System: Fibroblast
- PROTOCOL: Incucyte cell viability with human fibroblast; also: unitless GR value; below 1 slowed growth and below 0 cell loss
- Assay type: toxicity, cell-based
- CONDITION SET: 18 h, 10 µM, compound concentration 10 uM, replicate number 1
METRIC: Growth Rate

*Q* Entry under review: O=C1CCCc2[nH]c(-c3ccnc(NCC4CC4)c3)c(Nc3ccccc3)c21 . Reported Growth Rate?
*A* 0.49

Others:
*Q* Entry under review: Cn1c(=O)n(CCCO)c(=O)c2c1nc(Oc1cccc(Cl)c1)n2Cc1ccc(Cl)cc1 . Reported Growth Rate?
*A* 0.33

*Q* Entry under review: CC1CCN(c2ccnc(NCc3cn(C)cn3)n2)CC1 . Reported Growth Rate?
*A* 0.71

*Q* Entry under review: COc1cc(-c2cc3ncccc3c(OC[C@H]3CNC(=O)C3)n2)cc(OC)c1OC1CCOCC1.O=C(O)C(F)(F)F . Reported Growth Rate?
*A* 1

*Q* Entry under review: O=C(CCSCc1ccco1)NNC(=O)N1Cc2ccccc2Oc2ccc(Cl)cc21 . Reported Growth Rate?
*A* 0.92

*Q* Entry under review: C=C(F)C(=O)N1CCN(c2nc(OC[C@@H]3CCCN3C)nc3c2CCN(c2cccc4cccc(Cl)c24)C3)C[C@@H]1CC#N . Reported Growth Rate?
*A* -0.26

*Q* Entry under review: CCOC(=O)/N=C(\N)c1ccc(OCc2cccc(COc3ccc(C(C)(C)c4ccc(OC(=O)OCC)cc4)cc3)c2)cc1 . Reported Growth Rate?
*A* 0.66

*Q* Entry under review: CCN1C(=O)/C(=C(\NC2CCN(C)CC2)c2ccc3c(c2)OCO3)c2cc(C(C)=O)ccc21 . Reported Growth Rate?
*A* 0.7

----------
- Tested on: Fibroblast
- PROTOCOL: Incucyte cell viability with human fibroblast; also: unitless GR value; below 1 slowed growth and below 0 cell loss
- Assay type: toxicity, cell-based
- CONDITION SET: 12 h, 10 µM, compound concentration 10 uM, replicate number 1
METRIC: Growth Rate
// response body must contain only the number

*Q* Entry under review: C=CC(=O)Nc1cc(Nc2nccc(-n3cc(CN(C)C)c(-c4ccccc4)n3)n2)c(OC)cc1N1CCOCC1 [LAZERTINIB] . Reported Growth Rate?
*A* -1

*Q* Entry under review: O=C1c2c(Br)c(Br)c(Br)c(Br)c2C(=O)N1c1ncc[nH]1 . Reported Growth Rate?
*A* -0.93

*Q* Entry under review: Cn1cc(-c2ccc(-c3cncc(Cl)c3N3CCC4(CCNC4=O)CC3)cc2)cn1 . Reported Growth Rate?
*A* 0.75

*Q* Entry under review: C[C@@H](CN1CCC(Cc2ccccc2)CC1)[C@@H](O)c1ccc(O)cc1 . Reported Growth Rate?
*A* -0.59

*Q* Entry under review: O=C(O)c1cc(-c2ccccc2)ccc1O . Reported Growth Rate?
*A* 0.95

*Q* Entry under review: CC(=O)O[C@H]1C(=O)[C@@]2(C)[C@H]([C@H](OC(=O)c3ccccc3)[C@]3(O)C[C@H](OC(=O)[C@H](O)[C@@H](NC(=O)c4ccccc4)c4ccccc4)C(C)=C1C3(C)C)[C@]1(OC(C)=O)CO[C@@H]1C[C@@H]2O [PACLITAXEL] . Reported Growth Rate?
*A* -0.7

*Q* Entry under review: COc1cc(-c2cc(-c3cccc(O)c3)cnc2N)cc(OC)c1OC . Reported Growth Rate?
*A* -1

*Q* Entry under review: CCn1c(CNC(=O)c2ncc(C)nc2N)[n+](CC)c2ccc(C(=O)N(C)CCN(C)C)cc21.Cl.Cl.[Cl-] . Reported Growth Rate?
*A* 0.87

*Q* Entry under review: NC(=O)c1cc(-c2ccnc(NC3CCCCC3)c2)nc(N2CCNCC2)c1 . Reported Growth Rate?
*A* -1

*Q* Entry under review: Cc1sc(C(=O)c2cncnc2N[C@@H]2C[C@H](COS(N)(=O)=O)[C@@H](O)C2)cc1[C@@H]1NCCc2ccc(Cl)cc21 . Reported Growth Rate?
*A* 0.55

*Q* Entry under review: OC(c1ccc(-c2ccc(CN3CCN(Cc4ccncc4)CC3)cc2)c(F)c1)(C(F)(F)F)C(F)(F)F . Reported Growth Rate?
*A* 0.07

*Q* Entry under review: NC(=O)c1sc2nc(N3CCC(NC[C@H](O)c4ccccn4)CC3)cc(C(F)(F)F)c2c1N . Reported Growth Rate?
*A* 0.88

*Q* Entry under review: Cc1nsc(Nc2cnc(C(F)(F)F)cn2)c1C(=O)Nc1ccc(O[C@H]2CCCN(CC(F)(F)F)C2)nc1 . Reported Growth Rate?
*A* -0.43

*Q* Entry under review: N[C@@H](Cn1cc(F)c(=O)[nH]c1=O)C(=O)O . Reported Growth Rate?
*A* -0.98

*Q* Entry under review: CCN1C(=O)/C(=C(\NC2CCN(C)CC2)c2ccc3c(c2)OCO3)c2cc(C(C)=O)ccc21 . Reported Growth Rate?
*A* 0.32

*Q* Entry under review: COc1ccc(-n2nc(C(F)(F)F)cc2-c2ccc(Cl)cc2)cc1 [SC-560] . Reported Growth Rate?
*A* 0.59

*Q* Entry under review: Cc1onc(-c2ccc(F)cc2)c1COc1ccc(C(=O)N2CCS(=O)(=O)CC2)cn1 [BASMISANIL] . Reported Growth Rate?
*A* -1

*Q* Entry under review: O=C(NCCS(=O)(=O)c1ccc(C(F)(F)F)cn1)c1ccc(Cl)cc1 . Reported Growth Rate?
*A* 0.61

*Q* Entry under review: CC(C)(C)NC(=O)c1cncn1C1CCN(c2ccc(-c3nnc(C(F)(F)F)o3)cn2)CC1 . Reported Growth Rate?
*A* -0.09

*Q* Entry under review: O=C(Cc1ccccc1[N+](=O)[O-])Nc1ccc(-c2ccc(C(O)(C(F)(F)F)C(F)(F)F)cc2F)cc1 . Reported Growth Rate?
*A* 0.45

*Q* Entry under review: CCO[C@H](COc1ccc(C(F)(F)F)cc1)CSc1ccc(OCC(=O)[O-])c(C)c1.[Na+] . Reported Growth Rate?
*A* 0.7

*Q* Entry under review: C[C@@H](Oc1cc(-n2cnc3ccc(OC4CCN(C)CC4)cc32)sc1C(N)=O)c1ccccc1Cl [GSK-579289A] . Reported Growth Rate?
*A* 0.94

*Q* Entry under review: Nc1ncc2c(n1)-c1c([nH]c3ccc(C4CC4)cc13)CCCC2 . Reported Growth Rate?
*A* 0.76
